molecular target: T1, human CD47 on cells (human CD47-transfected CHO-K1; HL60) (human, UniProt Q08722 19-323); assay: flow cytometry, human CD47-transfected CHO-K1, FIG. 6
T1 construct: whole, on cells; also called human CD47+ cells; human CD47+HL60 cells
experimental-readout: maximum MFI, fold over untransfected CHO-K1

query: Request the reported maximum MFI, fold over untransfected CHO-K1 associated with mVH/mVL (chimeric VxP037) in human IgG1null format (antibody, V domains shown, Murine v-domains on human IgG1null (IgG1 L234A/L235A/G237A), kappa; also called VP037; Chimeric anti-CD47) VH: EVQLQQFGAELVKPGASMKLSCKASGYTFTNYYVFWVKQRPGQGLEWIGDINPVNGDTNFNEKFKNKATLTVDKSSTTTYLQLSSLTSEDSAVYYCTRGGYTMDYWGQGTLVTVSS VL: DVVMTQTPLSLSVSLGDQASISCRSSQSLVHSNGNTYLHWYLQKPGQSPKLLIYKVSYRFSGVPDRFSGSGSGTDFTLKISRVEAEDLGVYFCSQNTHVPRTFGQGTKVEIK
result: > 10 fold

Now for the binder whose maximum MFI, fold over untransfected CHO-K1 we want.
query: I'd like to know its maximum MFI, fold over untransfected CHO-K1. The binder in question is G-B6 in human IgG4(S228P) format (antibody, V domains shown, IgG4(S228P), kappa; also called G-B6 IgG4) VH: EVQLVQSGAEVKKPGESLKISCKGSGYSFTNYYIFWVRQMPGKGLEWIGDINPVNGDTNFSPSFQGQVTISADKSISTAYLQWSSLKASDTAMYYCARGGYTMDKWGQGTLVTVSS VL: DIVMTQSPLSLPVTPGEPASISCRSSQSLVHSNGYTYLHWYLQKPGQSPQLLIYKGSYRASGVPDRFSGSGSGTDFTLKISRVEAEDVGVYYCSQNTQTPRTFGQGTKVEIK
result: > 10 fold
